biological target: UniProt:P61169; experiment: Tested for the inhibition of [3H]spiperone binding to dopamine D2 receptor
Sequence (P61169 whole entry): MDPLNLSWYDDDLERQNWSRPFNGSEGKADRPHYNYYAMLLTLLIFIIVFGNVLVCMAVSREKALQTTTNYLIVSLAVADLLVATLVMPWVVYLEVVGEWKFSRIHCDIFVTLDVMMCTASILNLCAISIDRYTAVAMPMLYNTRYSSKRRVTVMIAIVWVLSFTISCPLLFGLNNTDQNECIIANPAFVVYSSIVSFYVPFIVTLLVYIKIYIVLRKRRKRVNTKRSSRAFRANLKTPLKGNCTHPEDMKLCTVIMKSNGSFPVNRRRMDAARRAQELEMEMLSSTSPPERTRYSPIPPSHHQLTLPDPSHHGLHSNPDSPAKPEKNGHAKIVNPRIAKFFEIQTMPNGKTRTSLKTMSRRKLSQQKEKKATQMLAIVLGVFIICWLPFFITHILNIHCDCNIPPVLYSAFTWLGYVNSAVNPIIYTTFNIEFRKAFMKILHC
The following molecules are shown together with reported pIC50 values.
Entry type: numeric. Quantity: pIC50, the -log10 of concentration in molar units.

O=C1NCCN1CCCCCN1CCC(c2cn(-c3ccc(F)cc3)c3ccc(Cl)cc23)CC1	8.38
Fc1ccc(-n2cc(C3CCNCC3)c3cc(Cl)ccc32)cc1	7.64
CN1CC=C(c2cn(-c3ccc(F)cc3)c3ccc(Cl)cc23)CC1	8.96
O=C1NCCN1CCN1CC=C(c2cn(-c3ccc(F)cc3)c3ccc(Cl)cc23)CC1	8.64

Let us examine a further case.
Item N#Cc1ccc2c(c1)c(C1CCN(CCN3CCNC3=O)CC1)cn2-c1ccc(F)cc1 has what recorded pIC50?
8.66
